# Tested on: colorectal cancer cell line HT29
# Assay summary: Cell proliferation suppression in colorectal cancer cell line HT29
# Assay type: cell-based
# Assay context: HT29, 50 μM, 72 hours
Residues, ends and D or L forms follow the SMILES beside them. *: point of attachment. Benzoyl(3-Ph) = O=C(c1cccc(-c2ccccc2)c1)*; Benzoyl(2-Ph) = O=C(c1ccccc1-c1ccccc1)*; Benzoyl(4-OMe) = COc1ccc(C(=O)*)cc1; 2Naphthoyl = O=C(c1ccc2ccccc2c1)*; Bz = O=C(c1ccccc1)*
Task for the reader: assign each of the following compounds its reported cell proliferation suppression effect compared to the control (AQTGTGKT).
Provide only the numeric value, understood in %.

// recorded cell proliferation suppression effect compared to the control (AQTGTGKT) for COc1ccc(C(=O)N[C@@H](C)C(=O)N[C@@H](CCC(N)=O)C(=O)N[C@H](C(=O)NCC(=O)N[C@H](C(=O)NCC(=O)N[C@@H](CCCCN)C(=O)N[C@H](C(=O)O)[C@@H](C)O)[C@@H](C)O)[C@@H](C)O)cc1 ({Benzoyl(4-OMe)}-AQTGTGKT-OH) : 48

Notebook: C[C@H](NC(=O)c1ccccc1)C(=O)N[C@@H](CCC(N)=O)C(=O)N[C@H](C(=O)NCC(=O)N[C@H](C(=O)NCC(=O)N[C@@H](CCCCN)C(=O)N[C@H](C(=O)O)[C@@H](C)O)[C@@H](C)O)[C@@H](C)O (Bz-AQTGTGKT-OH) , cell proliferation suppression effect compared to the control (AQTGTGKT) read as 40

Lookup result for C[C@H](NC(=O)c1ccc2ccccc2c1)C(=O)N[C@@H](CCC(N)=O)C(=O)N[C@H](C(=O)NCC(=O)N[C@H](C(=O)NCC(=O)N[C@@H](CCCCN)C(=O)N[C@H](C(=O)O)[C@@H](C)O)[C@@H](C)O)[C@@H](C)O (2Naphthoyl-AQTGTGKT-OH) ; measured cell proliferation suppression effect compared to the control (AQTGTGKT): 58

// cell proliferation suppression effect compared to the control (AQTGTGKT) value for C[C@H](NC(=O)c1ccccc1-c1ccccc1)C(=O)N[C@@H](CCC(N)=O)C(=O)N[C@H](C(=O)NCC(=O)N[C@H](C(=O)NCC(=O)N[C@@H](CCCCN)C(=O)N[C@H](C(=O)O)[C@@H](C)O)[C@@H](C)O)[C@@H](C)O ({Benzoyl(2-Ph)}-AQTGTGKT-OH) : 7

Entry C[C@H](NC(=O)c1cccc(-c2ccccc2)c1)C(=O)N[C@@H](CCC(N)=O)C(=O)N[C@H](C(=O)NCC(=O)N[C@H](C(=O)NCC(=O)N[C@@H](CCCCN)C(=O)N[C@H](C(=O)O)[C@@H](C)O)[C@@H](C)O)[C@@H](C)O ({Benzoyl(3-Ph)}-AQTGTGKT-OH) , cell proliferation suppression effect compared to the control (AQTGTGKT) reported as 59
